Molecular target: Neuronal acetylcholine receptor subunit alpha-4/alpha-6/beta-2/beta-3 (Mus musculus) (UniProt Q9ERK7+O70174+Q9R0W9+Q8BMN3)
Sequence (O70174 31-629 partner limits assumed): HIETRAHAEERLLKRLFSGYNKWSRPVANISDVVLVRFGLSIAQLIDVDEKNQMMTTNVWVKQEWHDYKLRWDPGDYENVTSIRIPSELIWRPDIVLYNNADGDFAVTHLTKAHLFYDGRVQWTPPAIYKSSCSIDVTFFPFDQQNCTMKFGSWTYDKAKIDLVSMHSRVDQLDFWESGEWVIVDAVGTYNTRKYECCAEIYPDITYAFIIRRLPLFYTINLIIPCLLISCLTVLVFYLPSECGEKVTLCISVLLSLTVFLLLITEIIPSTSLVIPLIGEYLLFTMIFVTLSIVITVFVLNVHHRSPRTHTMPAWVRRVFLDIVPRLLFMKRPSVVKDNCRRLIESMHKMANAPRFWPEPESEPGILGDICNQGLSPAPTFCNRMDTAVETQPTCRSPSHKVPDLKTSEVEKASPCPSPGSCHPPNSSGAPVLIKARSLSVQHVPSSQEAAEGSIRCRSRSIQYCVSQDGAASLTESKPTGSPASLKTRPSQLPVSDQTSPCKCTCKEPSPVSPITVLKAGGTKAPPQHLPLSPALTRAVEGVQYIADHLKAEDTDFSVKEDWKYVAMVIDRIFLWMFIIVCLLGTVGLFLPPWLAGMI
Sequence (Q8BMN3 31-464 partner limits assumed): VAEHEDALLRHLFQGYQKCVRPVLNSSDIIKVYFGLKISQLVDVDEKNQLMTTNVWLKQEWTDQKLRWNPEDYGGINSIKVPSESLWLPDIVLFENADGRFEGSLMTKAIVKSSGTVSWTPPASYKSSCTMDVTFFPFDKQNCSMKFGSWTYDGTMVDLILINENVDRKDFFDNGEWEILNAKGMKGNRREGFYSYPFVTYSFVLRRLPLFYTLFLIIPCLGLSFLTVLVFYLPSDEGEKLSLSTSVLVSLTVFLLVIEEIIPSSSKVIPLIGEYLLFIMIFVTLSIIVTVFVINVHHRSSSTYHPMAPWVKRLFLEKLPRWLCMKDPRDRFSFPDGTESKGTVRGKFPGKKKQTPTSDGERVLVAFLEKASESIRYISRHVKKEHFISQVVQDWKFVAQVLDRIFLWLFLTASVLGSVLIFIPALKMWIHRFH
Sequence (Q9ERK7 26-501 limits assumed): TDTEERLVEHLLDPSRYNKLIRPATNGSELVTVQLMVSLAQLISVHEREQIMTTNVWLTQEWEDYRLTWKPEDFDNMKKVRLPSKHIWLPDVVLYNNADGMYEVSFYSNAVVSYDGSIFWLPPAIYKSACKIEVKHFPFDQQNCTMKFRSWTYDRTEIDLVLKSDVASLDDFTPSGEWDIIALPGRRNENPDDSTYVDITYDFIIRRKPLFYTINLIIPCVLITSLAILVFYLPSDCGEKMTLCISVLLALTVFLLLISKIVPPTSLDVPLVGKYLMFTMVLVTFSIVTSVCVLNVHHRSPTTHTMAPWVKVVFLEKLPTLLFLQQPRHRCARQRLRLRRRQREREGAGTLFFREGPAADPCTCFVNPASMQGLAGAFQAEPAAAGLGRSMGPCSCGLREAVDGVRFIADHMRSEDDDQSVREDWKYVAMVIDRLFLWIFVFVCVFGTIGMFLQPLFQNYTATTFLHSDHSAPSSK
Sequence (Q9R0W9 31-494 partner limits assumed): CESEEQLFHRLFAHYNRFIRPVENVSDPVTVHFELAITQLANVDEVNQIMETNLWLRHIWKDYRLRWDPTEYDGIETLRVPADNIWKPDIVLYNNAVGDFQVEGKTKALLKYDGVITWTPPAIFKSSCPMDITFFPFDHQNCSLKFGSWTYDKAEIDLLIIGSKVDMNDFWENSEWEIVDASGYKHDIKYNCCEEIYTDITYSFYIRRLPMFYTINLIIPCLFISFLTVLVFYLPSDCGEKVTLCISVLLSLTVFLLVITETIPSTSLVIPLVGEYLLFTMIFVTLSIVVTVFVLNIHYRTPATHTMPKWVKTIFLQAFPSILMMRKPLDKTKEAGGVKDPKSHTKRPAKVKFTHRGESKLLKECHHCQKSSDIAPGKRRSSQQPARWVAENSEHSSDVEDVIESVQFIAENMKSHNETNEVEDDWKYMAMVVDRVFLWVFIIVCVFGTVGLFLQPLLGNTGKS
Assay: Activity at alpha6alpha4beta3beta2 nAChR in mouse striatal synaptosomes assessed as alpha-conotoxic […] DA release relative to control
Type: subcellular
Details: Brain
metricName: Emax (%)
Expressed in %, but write only the number.

[
  {
    "compoundSmiles": "C(=C\\[C@@H]1CCNC1)/c1cncnc1.O=C(O)[C@@H](O)[C@H](O)[C@H](O)[C@@H](O)C(=O)O",
    "Emax, %": 48
  }
]

Record C(#C[C@H]1CCCN1)c1cncnc1 , field Emax: 134

Short answer for CNCC/C=C/c1cccnc1.O=C(O)[C@@H](O)[C@H](O)[C@H](O)[C@@H](O)C(=O)O : Emax was 0

Given item CNCC/C=C/c1cncnc1.O=C(O)[C@@H](O)[C@H](O)[C@H](O)[C@@H](O)C(=O)O , the value recorded as its Emax is 80

Measured Emax, C(=C\[C@@H]1CCNC1)/c1cccnc1.O=C(O)C(F)(F)F : 66
